Molecular target: human bradykinin 1 receptor (B1R) (Homo sapiens, UniProt P46663)
Construct: expressed in transfected cells; host or cells: CHO K1 cells
Sequence (P46663 whole entry): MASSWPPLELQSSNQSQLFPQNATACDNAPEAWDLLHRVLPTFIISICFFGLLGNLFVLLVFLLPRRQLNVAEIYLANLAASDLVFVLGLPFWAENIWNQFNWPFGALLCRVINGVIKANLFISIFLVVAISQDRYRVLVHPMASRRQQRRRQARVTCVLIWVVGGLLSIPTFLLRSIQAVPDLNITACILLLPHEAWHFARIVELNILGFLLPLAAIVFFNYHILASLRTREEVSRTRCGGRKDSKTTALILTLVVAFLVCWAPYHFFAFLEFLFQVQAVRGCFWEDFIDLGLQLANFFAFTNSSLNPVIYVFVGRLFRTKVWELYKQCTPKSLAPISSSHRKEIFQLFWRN
Assay: Functional investigation on the human bradykinin 1 receptor (B1R), Ca2+ FLIPR assay in CHO K1 hB1R cells
Type: cell-based
Conditions: B1R antagonism human; test substance 10 μM; Ca2+ FLIPR, CHO K1 hB1R cells
Quantity Kind: B1R Ant. h [10 μM] % Inhibition (%)

Compound: CN(C)C(c1ccc(F)cc1)C1CCC(NC(=O)COCCN(C)S(=O)(=O)c2c(Cl)cccc2Cl)CC1 (stereo not shown)
Quantity Kind: B1R Ant. h [10 μM] % Inhibition
Reported: 80
--
Compound: CN(C)C(c1ccc(F)cc1)C1CCC(CCNC(=O)COCCN(C)S(=O)(=O)c2ccc(Cl)cc2)CC1 (stereo not shown)
Quantity Kind: B1R Ant. h [10 μM] % Inhibition
Reported: 28
--
Compound: COc1cc(C)c(S(=O)(=O)N2CCC(OCC(=O)NCC3CCC(C(c4ccc(F)cc4)N(C)C)CC3)CC2)c(C)c1C (stereo not shown)
Quantity Kind: B1R Ant. h [10 μM] % Inhibition
Reported: 57
--
Compound: CN(C)C(CCc1ccccc1)C1CCC(CNC(=O)COCCN(C)S(=O)(=O)c2c(Cl)cccc2Cl)CC1 (stereo not shown) [Example 580]
Quantity Kind: B1R Ant. h [10 μM] % Inhibition
Reported: 95
--
Compound: CN(C)C(c1ccc(F)cc1)C1CCC(CCNC(=O)COC2CCN(S(=O)(=O)c3ccc(Cl)cc3)C2)CC1 (stereo not shown)
Quantity Kind: B1R Ant. h [10 μM] % Inhibition
Reported: −2
--
Compound: CN(C)C(CCc1ccccc1)C1CCC(CNC(=O)COC2CCCN(S(=O)(=O)c3ccccc3)C2)CC1 (stereo not shown)
Quantity Kind: B1R Ant. h [10 μM] % Inhibition
Reported: 14
--
Compound: COc1cc(C)c(S(=O)(=O)N2CCC(CCOCC(=O)NCC3CCC(C(CCc4ccccc4)N(C)C)CC3)CC2)c(C)c1C (stereo not shown)
Quantity Kind: B1R Ant. h [10 μM] % Inhibition
Reported: 66

====

Target: human μ opiate receptor (Homo sapiens, UniProt P35372)
Construct: purchased PerkinElmer Life Sciences, Zaventem, Belgium RB-HOM; host or cells: CHO-K1 cells (membrane preparation)
Sequence (P35372 whole entry): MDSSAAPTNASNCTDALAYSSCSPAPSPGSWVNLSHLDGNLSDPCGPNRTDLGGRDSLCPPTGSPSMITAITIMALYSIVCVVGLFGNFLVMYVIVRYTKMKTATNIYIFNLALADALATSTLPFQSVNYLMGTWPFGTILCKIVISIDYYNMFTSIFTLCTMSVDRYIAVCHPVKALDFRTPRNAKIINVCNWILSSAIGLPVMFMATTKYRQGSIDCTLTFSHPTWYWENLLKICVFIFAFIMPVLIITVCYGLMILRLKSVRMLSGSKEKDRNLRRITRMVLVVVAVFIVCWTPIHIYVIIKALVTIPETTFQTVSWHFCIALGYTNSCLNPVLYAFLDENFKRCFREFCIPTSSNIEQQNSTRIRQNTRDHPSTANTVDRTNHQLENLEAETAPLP
Test: Affinity for the human μ opiate receptor ([3H]-naloxone displacement, CHO-K1 receptor membrane preparation, SPA)
Type: binding
Conditions: test concentration of 1 μM
Quantity Kind: μ (binding on the μ opioid receptor, % inhibition)

Compound: CN(C)C(c1ccc(Cl)cc1)C1CCC(CNC(=O)COCCN(C)S(=O)(=O)c2c(Cl)cc(Cl)cc2Cl)CC1 (stereo not shown)
Reported: 65%
--
Compound: COc1cc(C)c(S(=O)(=O)N(CCOCC(=O)NCC2CCC(C(c3ccc(F)cc3)N(C)C)CC2)Cc2ccccc2)c(C)c1 (stereo not shown)
Reported: 42%
--
Compound: COc1ccc(S(=O)(=O)N2CCCCC2COCC(=O)NCC2CCC(C(c3ccc(Cl)cc3)N(C)C)CC2)cc1 (stereo not shown)
Reported: 70%
--
Compound: Cc1ccc(S(=O)(=O)N2CCC(OCC(=O)NCCC3CCC(C(c4ccc(Cl)cc4)N(C)C)CC3)C2)cc1 (stereo not shown)
Reported: 63%
--
Compound: CN(C)C(c1cccc(F)c1)C1CCC(NC(=O)COCc2ccccc2)CC1 (stereo not shown)
Reported: 67%
--
Compound: COc1cc(C)c(S(=O)(=O)N(CCOCC(=O)NCC2CCC(C(c3ccccc3)N(C)C)CC2)Cc2ccccc2)c(C)c1C (stereo not shown)
Reported: 88%
--
Compound: COc1ccc(S(=O)(=O)N2CCCC2COCC(=O)NC2CCC(C(c3ccc(F)cc3)N(C)C)CC2)cc1 (stereo not shown)
Reported: 43%
--
Compound: CN(C)C(CCc1ccccc1)C1CCC(CNC(=O)COCCN(C)S(=O)(=O)c2ccc(F)cc2)CC1 (stereo not shown)
Reported: 32%
--
Compound: COc1cc(C)c(S(=O)(=O)N(C)CCOCC(=O)NCC2CCC(C(c3ccc(Cl)cc3)N(C)C)CC2)c(C)c1 (stereo not shown)
Reported: 61%
--
Compound: CN(C)C(CCc1ccccc1)C1CCC(CNC(=O)COCCN(C)S(=O)(=O)c2c(Cl)cc(Cl)cc2Cl)CC1 (stereo not shown)
Reported: 42%
--
Compound: CN(C)C(c1cccc(F)c1)C1CCC(CCNC(=O)COCC2CCCN2S(=O)(=O)c2ccc(Cl)c(Cl)c2)CC1 (stereo not shown)
Reported: 85%
--
Compound: CN(C)C(c1ccc(F)cc1)C1CCC(NC(=O)COCCN(Cc2ccccc2)S(=O)(=O)c2ccccc2)CC1 (stereo not shown)
Reported: 59%
--
Compound: COc1cc(C)c(S(=O)(=O)N2CCC(CCOCC(=O)NCC3CCC(C(c4cccc(F)c4)N(C)C)CC3)CC2)c(C)c1C (stereo not shown)
Reported: 71%
--
Compound: COc1ccc(S(=O)(=O)N2CCCCC2COCC(=O)NCC2CCC(C(c3ccc(F)cc3)N(C)C)CC2)cc1 (stereo not shown)
Reported: 64%
--
Compound: CN(C)C(c1cccc(F)c1)C1CCC(CNC(=O)COCCN(C)S(=O)(=O)c2ccc(OC(F)(F)F)cc2)CC1 (stereo not shown)
Reported: 66%
--
Compound: CN(C)C(c1cccc(F)c1)C1CCC(CNC(=O)COCC2CCCN(S(=O)(=O)c3ccccc3)C2)CC1 (stereo not shown)
Reported: 73%
--
Compound: Cc1cc(C)c(S(=O)(=O)N2CCC(OCC(=O)NC3CCC(C(c4ccc(F)cc4)N(C)C)CC3)C2)c(C)c1 (stereo not shown)
Reported: 58%
--
Compound: CN(C)C(c1ccc(F)cc1)C1CCC(CNC(=O)COCCN(C)S(=O)(=O)c2ccc(F)cc2)CC1 (stereo not shown)
Reported: 55%
--
Compound: COc1cc(C)c(S(=O)(=O)N(C)CCOCC(=O)NC2CCC(C(c3cccc(F)c3)N(C)C)CC2)c(C)c1 (stereo not shown)
Reported: 76%
--
Compound: CC(Oc1ccccc1)C(=O)NCCC1CCC(C(c2ccc(F)cc2)N(C)C)CC1 (stereo not shown)
Reported: 51%
--
Compound: CN(C)C(c1ccc(Cl)cc1)C1CCC(CCNC(=O)COC2CCN(S(=O)(=O)c3cccc(C(F)(F)F)c3)C2)CC1 (stereo not shown)
Reported: 45%
--
Compound: COc1cc(C)c(S(=O)(=O)N2CCN(CCOCC(=O)NCCC3CCC(C(c4ccc(Cl)cc4)N(C)C)CC3)CC2)c(C)c1C (stereo not shown)
Reported: 65%
--
Compound: CN(C)C(c1ccc(Cl)cc1)C1CCC(CNC(=O)COC2CCN(S(=O)(=O)c3ccccc3)C2)CC1 (stereo not shown)
Reported: 63%
--
Compound: COc1ccc(S(=O)(=O)N2CCCCC2COCC(=O)NCCC2CCC(C(c3cccc(F)c3)N(C)C)CC2)c(OC)c1 (stereo not shown)
Reported: 77%
--
Compound: COc1cc(C)c(S(=O)(=O)N(C)CCOCC(=O)NCCC2CCC(C(c3ccc(F)cc3)N(C)C)CC2)c(C)c1C (stereo not shown)
Reported: 61%
--
Compound: CN(C)C(c1ccc(F)cc1)C1CCC(CCNC(=O)COC2CCCN(S(=O)(=O)c3ccccc3)C2)CC1 (stereo not shown)
Reported: 31%
--
Compound: CN(C)C(c1ccc(F)cc1)C1CCC(NC(=O)COCCN(C)S(=O)(=O)c2c(Cl)cccc2Cl)CC1 (stereo not shown)
Reported: 59%
--
Compound: COc1cc(C)c(S(=O)(=O)N2CCC(OCC(=O)NCCC3CCC(C(c4ccc(F)cc4)N(C)C)CC3)C2)c(C)c1C (stereo not shown)
Reported: 40%

Recorded values, source patent US8106055B2.
